Origin of measurements: the supplement of paper PMC11208160

Test: recombinant UMI read abundance after kanamycin selection (control-corrected) (log10(CPM+1)); higher = more efficient recombination; extreme values may be limits of the assay; sequences stand for … in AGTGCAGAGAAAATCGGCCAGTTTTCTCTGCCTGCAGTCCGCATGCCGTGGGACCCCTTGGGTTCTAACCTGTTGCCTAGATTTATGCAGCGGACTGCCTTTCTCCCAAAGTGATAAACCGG…AGGTTGGTTTCACT; site = the 11-nt donor
# recombinant UMI read abundance (log10) annotations
Write the number on its own, no unit after it.

Answered cases to consult:
>>> assay_value("AATGTGACATGGACCGGTTTTCCCGGTAATCCGTATTTGCT (site AATGTCACTAG)")
0.731
>>> assay_value("GTGGTTCCATGGACCGGTTTTCCCGGTAATCCGTATTTGGT (site GTTGTTCCTAC)")
0.0137
>>> assay_value("TATTATCCATGGACCGGTTTTCCCGGTAATCCGTATTTGCT (site GATTATCCTAG)")
0
>>> assay_value("CGGAGTCCATGGACCGGTTTTCCCGGTAATCCGTATTTGTC (site CGGAGTCCTGA)")
1.34

Next sequence, please.
Query block: Quote recombinant UMI read abundance (log10) reported for ACCCGTCCATGGACCGGTTTTCCCGGTAATCCGTATTTGAT (site ATCCGTCCTAT) please.
Result block: 0.015

---

# recombinant barcode read abundance (log10) per record follows
Experiment: recombinant barcode read abundance after kanamycin selection (control-corrected) (log10(CPM+1)); higher = more efficient recombination; sequences stand for … in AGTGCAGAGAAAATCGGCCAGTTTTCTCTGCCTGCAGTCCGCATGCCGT…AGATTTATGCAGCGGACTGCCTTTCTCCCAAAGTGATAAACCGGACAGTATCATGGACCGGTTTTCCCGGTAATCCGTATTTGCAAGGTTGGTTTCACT; site = the 11-nt target
Give only the figure.

Check out these entries, answers already filled in.
>>> assay_value("CACTACCCTTGGGTTCTAACCTGTTGCTT (site AGGCCGTCTCC)")
0.0811
>>> assay_value("CCATGGACTTGGGTTCTAACCTGTTGCCT (site CCACGGACTAG)")
0.516
>>> assay_value("TCTAGACCTTGGGTTCTAACCTGTTGCCA (site TCTAGTCCTAG)")
0.564
>>> assay_value("GAGTTTGCTTGGGTTCTAACCTGTTGCCT (site GCGTTTGCTAG)")
0.0311
>>> assay_value("ACAAACCCTTGGGTTCTAACCTGTTGCCT (site ACAAAGCCTAG)")
0.159

Consider now this further sequence.
Query block: Let me know recorded recombinant barcode read abundance (log10) for AACCAGTCTTGGGTTCTAACCTGTTGCCG (site ACCCAGTCTTG) , thanks.
Result block: 0.033

---

Assay: recombinant barcode read abundance after kanamycin selection (control-corrected) (log10(CPM+1)); higher = more efficient recombination; sequences stand for … in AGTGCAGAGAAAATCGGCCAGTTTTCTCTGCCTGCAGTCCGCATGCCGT…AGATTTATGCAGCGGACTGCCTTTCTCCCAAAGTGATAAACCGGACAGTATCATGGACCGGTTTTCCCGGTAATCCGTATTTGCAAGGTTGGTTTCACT; site = the 11-nt target
Please mark yes (1) if the recorded recombinant barcode read abundance (log10) is equal to or greater than 0.3, and no (0) if it falls below.

Some solved cases for reference:
>>> category_label("CCTCTGGCTTGGGTTCTAACCTGTTGCCT (site CCGCTGTCTAG)")
"yes (1)"
>>> category_label("TCCTAAGCTTGGGTTCTAACCTGTTGCGG (site TGCTAAGCTCA)")
"no (0)"
>>> category_label("AGTGGGACTTGGGTTCTAACCTGTTGCCA (site GGTGAGACTTG)")
"no (0)"

Query block: State whether the measured recombinant barcode read abundance (log10) reaches 0.3, counting equality as reaching it, for GTCGGTACTTGGGTTCTAACCTGTTGCCT (site GTCGGAACTAG)
Result block: no (0)

Query block: Form field: recombinant barcode read abundance (log10) at least 0.3? Entry: GAGCCTTCTTGGGTTCTAACCTGTTGCAG (site AAGCCTTCTCA)
Result block: no (0)

Query block: Form field: recombinant barcode read abundance (log10) at least 0.3? Entry: AAGGGCGCTTGGGTTCTAACCTGTTGCCT (site AAGGGCGCTAG)
Result block: yes (1)

Query block: API: above_or_equal(metric=recombinant barcode read abundance (log10), cutoff=0.3) for item ACGAGAGCTTGGGTTCTAACCTGTTGCCT (site ACCAGAGCTAG)
Result block: no (0)

Query block: Does AGGCGCCCTTGGGTTCTAACCTGTTGCAA (site AGGCGCCCTCT) have a reported recombinant barcode read abundance (log10) of at least 0.3?
Result block: no (0)

Query block: Is recombinant barcode read abundance (log10) at least 0.3? Consider CCGCAGCCTTGGGTTCTAACCTGTTGCCT (site CCGCAGCCTAG)
Result block: yes (1)

Query block: Reported recombinant barcode read abundance (log10) reaches at least 0.3 for CTAGGAGCTTGGGTTCTAACCTGTTGCTT (site CTAGGAGCTGA) ?
Result block: no (0)

Query block: Does TAGGATACTTGGGTTCTAACCTGTTGCGT (site TAGGATACTAC) have a reported recombinant barcode read abundance (log10) of at least 0.3?
Result block: yes (1)

Query block: Check if recombinant barcode read abundance (log10) >= 0.3 (inclusive). Item: GAGTCTTCTTGGGTTCTAACCTGTTGCTA (site GAGTCTTCTTA)
Result block: no (0)

Query block: Item GGGCCTACTTGGGTTCTAACCTGTTGCTG (site GGGCCTACTTA) with recombinant barcode read abundance (log10) of 0.3 or above?
Result block: no (0)

---

Experiment: recombinant barcode read abundance after kanamycin selection (control-corrected) (log10(CPM+1)); higher = more efficient recombination; sequences stand for … in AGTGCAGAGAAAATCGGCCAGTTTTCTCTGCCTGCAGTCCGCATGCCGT…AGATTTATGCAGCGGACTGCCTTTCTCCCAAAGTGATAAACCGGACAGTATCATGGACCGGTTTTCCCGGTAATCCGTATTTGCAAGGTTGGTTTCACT; site = the 11-nt target
Outcome: class 1 for recombinant barcode read abundance (log10) of at least 0.2; class 0 for anything lower.

>>> category_label("CCGCCAGCTTGGGTTCTAACCTGTTGCCT (site CCGCCTGCTAG)")
"class 0"
>>> category_label("ATAAAACCTTGGGTTCTAACCTGTTGCCT (site CTAAAACCTAG)")
"class 1"
>>> category_label("AAGATACCTTGGGTTCTAACCTGTTGCTT (site AAGATACCTAA)")
"class 1"
>>> category_label("CCTAAGACTTGGGTTCTAACCTGTTGCCA (site CCTAAGACTCG)")
"class 0"
>>> category_label("TTAACTACTTGGGTTCTAACCTGTTGCTC (site TTAACTACTCA)")
"class 0"

Query block: Please indicate if the recorded recombinant barcode read abundance (log10) for AGAAATTCTTGGGTTCTAACCTGTTGCCT (site AGGAATTCTAG) meets or exceeds 0.2.
Result block: class 0

Query block: Please check the record TAGGCTGCTTGGGTTCTAACCTGTTGCCT (site TAGGCTGCTAG) and state if its recombinant barcode read abundance (log10) is at or above 0.2.
Result block: class 0

Query block: Evaluate TCCAATACTTGGGTTCTAACCTGTTGCCG (site TCCAATACTCG) : recombinant barcode read abundance (log10) at minimum 0.2?
Result block: class 1

---

Measured recombinant UMI read abundance (log10) values are reported for all entries that follow.
Test: recombinant UMI read abundance after kanamycin selection (control-corrected) (log10(CPM+1)); higher = more efficient recombination; extreme values may be limits of the assay; sequences stand for … in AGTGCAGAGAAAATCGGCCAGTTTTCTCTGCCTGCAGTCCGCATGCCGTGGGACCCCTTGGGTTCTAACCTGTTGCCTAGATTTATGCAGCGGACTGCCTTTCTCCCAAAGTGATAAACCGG…AGGTTGGTTTCACT; site = the 11-nt donor
API doc: respond with a numeric literal and nothing else, no unit.

>>> assay_value("CAGACATCATGGACCGGTTTTCCCGGTAATCCGTATTTGCT (site CCGACATCTAG)")
1.06

Query block: Complete the entry with recombinant UMI read abundance (log10) for GGTTCGTCATGGACCGGTTTTCCCGGTAATCCGTATTTGTT (site GGTCCGTCTAA)
Result block: 0.0123

Query block: Report measured recombinant UMI read abundance (log10); entry is CCGGGACCATGGACCGGTTTTCCCGGTAATCCGTATTTGAG (site CCGGGACCTCT)
Result block: 0

Query block: Provide recombinant UMI read abundance (log10) value for the following sequence: CGAGTGTCATGGACCGGTTTTCCCGGTAATCCGTATTTGAC (site CTAGTATCTGT)
Result block: 0.545

Query block: Given TCCGATTCATGGACCGGTTTTCCCGGTAATCCGTATTTGCC (site TCCTATTCTGG) , respond with its recombinant UMI read abundance (log10).
Result block: 0
